- assay_protocol: soluble on expression in E. coli; label from the status in PepcDB or PDB records
readout_label: soluble on expression in E. coli

Reference set (6 entries):
# record_sequence, readout_label, value_measured
rows = [
    ("QRVKRLLSITNDKHDEYLTEMVPLLVEFAKDECHNPFIDKDGNESIPSGVLIFVAKAAQFYMTNAGLTGRSMDTVSYNFATEIPSTILKKLNPYRKMAR", "soluble on expression in E. coli", "soluble"),
    ("MEKGTPPTHDSDNWMGRAKEIGNGGWDQFQFLFFDPNGYLYAVSNDKLYKASPPQSDTDNWIARATEIGSGGWSGFKFLFFHPNGYLYAVRGQRFYKALPPVSNQD", "soluble on expression in E. coli", "soluble"),
    ("MSLGDERPDVLLTGLLFYDLVLTGLGKPPTPGEEIWTEGMGVSPGGIANLAVAASRFGLRTSLATVFGDDHYGAYCRGVLAGQEGIDLSLSRTADGWHTPVTVSLAYGHDRALVTHGQDPPYSQDALMGDPPEARTALVHIEAEPHAWLAKAAANGTRIYADVGWDPTQQWSRDLLDQLSLCHAFLPNEAEAMAYTRTDSAMAALGTLTDLVPVAVVTRGGDGAVAVDQTTGEYAEVPALDIDVLDPTGAGDVFGASFVAASLGGWPLAERLRFAVLAAGLSVQRHGGALAAPGWYGVHRWWHSLEDPGLRRAYGFLADRIPADPGPPVRHAPVTPPDATRREGHHHHHH", "soluble on expression in E. coli", "soluble"),
    ("MAEQSDEAVKYYTLEEIQKHNHSKSTWLILHHKVYDLTKFLEEHPGGEEVLREQAGGDATENFEDVGHSTDAREMSKTFIIGELHPDDRPKLNKPPEP", "soluble on expression in E. coli", "soluble"),
    ("DITVYNGQHKEAAQAVADAFTRATGIKVKLNSAKGDQLAGQIKEEGSRSPADVFYSEQIPALATLSAANLLEPLPASTINETRGKGVPVAAKKDWVALSGRSRVVVYDTRKLSEKDLEKSVLNYATPKWKNRIGYVPTSGAFLEQIVAIVKLKGEAAALKWLKGLKEYGKPYAKNSVALQAVENGEVDAALINNYYWHAFAREKGVQNVHTRLNFVRHRDPGALVTYSGAAVLKSSQNKDEAKKFVAFLAGKEGQRALTAVRAEYPLNPHVVSTFNLEPIAKLEAPQVSATTVSEKEHATRLLEQAGMK", "soluble on expression in E. coli", "soluble"),
    ("MQFTDGGKEVELRLRLKTGEILSPKDISVDADGTSLAVKEKRNGLLITLLETNHLFEKIMPSETIWYIDEDQLVVNMKKVDGELKWPDIVESWESLTAGMMQLLKGASIYIVGDSTEINQKVSRELAVGLGYSPLDSKELLESFSKQTIDSWILAEGPDSVAEAESSVLESLSSHVRTVVSTLGGKHGAAGRADQWRHLYSGFTVWVSQTEATDEESAKEEARRSKQEREIGYSNADVVVKLQGWDPTHAKSVAQASLSALKQLIISDKGLPGNK", "soluble on expression in E. coli", "not soluble"),
]

Consider the following items and state reported soluble on expression in E. coli for each.
1. MGSDKIHHHHHHMKRENLHQPFEICFSELDESQLKEHDHTFFELVYILSGTGIQWINNNKFPYHDGHLFMITPGDIHSFDIHTTTKFVYIKFNDIYIHSAVFGAENIQRLEFILQHANHRPGCILRNQTDKLLVKPMIEAIIREYVNRNIYSSEIITQLINTIVIVVARNIAMFLPEQIDENSEEKSLNILQYIQSNICYPEKIKAKAISQHFGISPNYLGRYFKKQTNETMQQYILNYKMKMVESRLLHSEMRISEIVEELGFTDESHLNRLFKKYKDCNPTDFRKKHRGQ
2. MGSDKIHHHHHHMTFNVPDVKPLINDEFAGEAPKRALSYIANKRSAGMPVAGTYCGYAPMEVIRAVGAVPAVLCAFANKTIPAAEAVLPANLCPLIKSSYGFILTDTCPFFALSDAVVAETTCDGKKKMFELIFSHRPMFVMDLPQLPDEVEARANWATMISKLKGFLENTFGTFGTSEGIEAEIQATNIKNRLMRRVFGYAEKKPPLLSWSELYELCFLAQVATTEDLLPVFKEVFERLEEREAKGIYYGAPSSPRVLVTGCPVGGDSTKVFRIIEEAGGVVVAMDSCSGMKPFIADIEEKTGNPIDSVARHYLEIPCSCMTPNTRRLTELDKALAAFQPDAVVEVVLHACHSYNIEAIKIMNYLKEKHNLPYLKIVTDYSEGDVEQIRTRVEALLESI
3. MLLMMVVGLTAGVLAGCANPKDTTEEFLTAIQKGDIEKARTFVESDKEFNKLNEKTDDAEAKAMLSAITKNFKFEKLEEVSKKDDKAEVKVKITSADLSVAVTKAVGEVMPMAFASAFSEDKEQSEKAIEKTMTSTIIKNLTDKDAAMATREVTLNLKKDKDGDYKIVADDNLKEVLFANAKSLEKMFGGK
4. MNDFSLELPVRTNKPRETGQSILIDNGYPLQFFKDAIAGASDYIDFVKFGWGTSLLTKDLEEKISTLKEHDITFFFGGTLFEKYVSQKKVNEFHRYCTYFGCEYIEISNGTLPMTNKEKAAYIADFSDEFLVLSEVGSKDAELASRQSSEEWLEYIVEDMEAGAEKVITEARESGTGGICSSSGDVRFQIVDDIISSDIDINRLIFEAPNKTLQQGFIQKIGPNVNLANIPFHDAIALETLRLGLRSDTFFLLEHHHHHH
5. MASPSKAVIVPGNGGGDVTTHGWYGWVKKELEKIPGFQCLAKNMPDPITARESIWLPFMETELHCDEKTIIIGHSSGAIAAMRYAETHRVYAIVLVSAYTSDLGDENERASGYFTRPWQWEKIKANCPYIVQFGSTDDPFLPWKEQQEVADRLETKLHKFTDCGHFQNTEFHELITVVKSLLKVPALEHHHHHH
6. MDIAEQLIQNAGKRSTPVRSAVLGVLLNAEDVLSHSEVLEHLQQLGAFDRVTVYRALDWLVTQGLVHKVAGAGRAWRFQVTRSESMHRHAHFQCHHCHKVFCLPEVQPVLPKELPSNFSIDSIELNIKGICADCGRAMMSQ

1. not soluble
2. not soluble
3. not soluble
4. not soluble
5. soluble
6. not soluble
